Each record here notes measured GI50.
tested on: A549; experiment: NCI tumour cell line growth inhibition, 48 h
Active and inactive are the calls of the source. No stated cut-off is given here; in the data, active = GI50 up to about 1.1 µM and inactive = higher.

molecule | systemUnderTest | GI50
COc1cc(C(C)=O)cc(C(=O)N(C(C)C)C(C)C)c1[Si](C)(C)C | A549 | 67.8 µM (inactive)
CC(C)(C)c1cc(C(C)(C)C)c(SSc2c(C(C)(C)C)cc(C(C)(C)C)c(O)c2O)c(O)c1O | A549 | 6.75 µM (inactive)
NC(=O)N/N=C1/c2ccccc2-n2nccc21 | A549 | 78.3 µM (inactive)
C[C@]12CCC(=O)C=C1CC[C@@H]1C2CC[C@@]2(C)C1CC[C@@H]2OC(=O)C12OC1CCC2=O (stereo not given in full) | A549 | 25 µM (inactive)
Cc1n[nH]c(=O)n1/N=C/c1cccs1 | A549 | > 100 µM (inactive)

====

tested on: OVCAR-8; test: NCI tumour cell line growth inhibition, 48 h
The source made the active and inactive calls. Cut-off read from the data, not from the text of the source: active = GI50 up to about 1.1 µM and inactive = higher.
Classes used: active, inactive

compound | systemUnderTest | classLabel
CN(CCCNC(=O)c1cn(C)c2c1ccc1cc(Cl)c(Cl)cc12)CCCNC(=O)c1cn(C)c2c1ccc1cc(Cl)c(Cl)cc12 | OVCAR-8 | inactive
Cc1cn([C@@H]2O[C@H](CO[Si](C)(C)C(C)(C)C)[C@]3(O[C@H]3C(=O)NO)[C@H]2O[Si](C)(C)C(C)(C)C)c(=O)[nH]c1=O | OVCAR-8 | inactive
Cc1[nH]n(-c2nc3c(c(=O)[nH]2)CCC3)c(=O)c1CCO | OVCAR-8 | inactive
C[C@@H](NS(=O)(=O)c1ccc(NC(=O)c2ccccc2)cc1)C(=O)O | OVCAR-8 | inactive
O=C(Nc1ccc(S(=O)(=O)N[C@@H](C(=O)O)c2ccccc2)cc1)c1ccc(F)cc1 | OVCAR-8 | inactive
COc1ccccc1C1CC(=O)CC(c2ccccc2OC)C12C(=O)NC(=S)NC2=O (stereo not given) | OVCAR-8 | inactive
C=C1C(=O)O[C@H]2C1C[C@H](O)/C(C)=C/CC[C@@]1(C)O[C@H]21 (stereo not given in full) | OVCAR-8 | inactive
CCOC(=O)c1nc2ccc(OC)cc2c2c1Cc1ccccc1-2 | OVCAR-8 | inactive
C=CCOC(=O)CC[N+]1=CCC(c2ccccc2)(c2ccccc2)O1 | OVCAR-8 | inactive
CC(C)=CCNc1ncnc2c1ncn2CCC(=O)O | OVCAR-8 | inactive
CN(C)C(=S)OC(Cn1cncn1)c1ccc(Cl)cc1Cl (stereo not given) | OVCAR-8 | inactive
C[C@@H](CN1CC(=O)NC(=O)C1)N1CC(=O)NC(=O)C1 [DEXRAZOXANE] | OVCAR-8 | inactive
COc1cc2cc3c4c(cc(OC)c(OC)c4c2cc1OC)CCN3 | OVCAR-8 | inactive
CC1(c2cccc(C(F)(F)F)c2)CC(c2cccc(C(F)(F)F)c2)=C(C#N)C(=C(C#N)C#N)N1 (stereo not given) | OVCAR-8 | inactive
Clc1ccc(CCn2cncn2)c(Cl)c1 | OVCAR-8 | inactive
CCc1nc(N)nc(N)c1-c1ccc(N2CCNCC2)cc1 | OVCAR-8 | inactive
CCOC(=O)C1=C(C)OC(=O)[C@@]2(OC)C=C(Cl)[C@@]12C | OVCAR-8 | inactive
O=CC(O)C(O)C(O)COc1cc(CO)cc2c1C(=O)c1ccccc1C2=O (stereo not given) | OVCAR-8 | inactive
O=C1O[C@]2(c3ccccc3)C(c3ccccc3)=C[C@]2(C(=O)c2ccccc2)C1=O | OVCAR-8 | inactive
CN(C)CCNc1ccc2ncnc3c2c1C(=O)c1ccccc1-3 | OVCAR-8 | active

====

test system: KM12; experiment: NCI tumour cell line growth inhibition, 48 h
Activity calls are given as the source filed them. Rule as the data show it: active = GI50 up to about 1.1 µM and inactive = higher. Where a SMILES comes first, the peptide text is derived from it. The star is where a group is joined. Fmoc = O=C(OCC1c2ccccc2-c2ccccc21)*; OtBu = CC(C)(C)O*
Classes used: active, inactive

compound | classLabel
O=[S@@]1Nc2ccc(Br)cc2S1 | inactive
COc1ccc(C(=O)C(c2ccc(OC)cc2)C2OC(=O)C(Cl)=C2Cl)cc1 (stereo unspecified) | inactive
Nc1ccc(Sc2c3ccccc3nc3ccccc23)cc1 | inactive
Clc1ccc(N/N=C(\c2ccccc2)c2ccccn2)nc1 | active
CCOC(=O)c1nc2ccc(OC)cc2c2c1Cc1ccccc1-2 | inactive
CO[C@H]1C[C@H](n2cc(C)c(=O)[nH]c2=O)O[C@@H]1CO | inactive
O=C1c2ccccc2C(=O)N1CCCCNOCCCN1C(=O)c2ccccc2C1=O | inactive
C[n+]1c2ccccc2n2c3ccccc3c(NCc3ccco3)c(C#N)c21 | inactive
COc1cc(C2c3cc4c(cc3[C@@H](Nc3cccc([N+](=O)[O-])c3)C3COC(=O)[C@H]23)OCO4)cc(OC)c1O (stereo partly specified) | inactive
O=C(Nc1ccc(F)cc1)C(=O)C(C(=O)c1ccccc1F)C1OC(=O)c2ccccc21 (stereo unspecified) | inactive
O=C(O)C[n+]1cn(NC(=O)Cc2ccccc2)cn1 | inactive
CC(C)C(NC(=O)OCC1c2ccccc2-c2ccccc21)C(=O)NC(CCC(=O)OC(C)(C)C)C(=O)OC(C)(C)C (stereo unspecified) (Fmoc-Val-Glu(OtBu)-OtBu; configuration not given here) | inactive
CCC(=O)c1c(NOC2OCC(OC(C)=O)C(OC(C)=O)C2OC(C)=O)nc(OC)n(C)c1=O (stereo unspecified) | inactive
CCCCCC(=O)Nc1[nH]nnc1C(N)=O | inactive
COc1cc2c(cc1OCCCCCOc1cc3c(cc1OC)C(=O)N1CCC[C@H]1C(=O)N3)N=C[C@@H]1CCCN1C2=O | active
C[Si](C)(C)C#CCO[Si](C)(C)C | inactive
O=C(O)c1c(CC(Cc2ccc3c(c2)CCCC3)C(=O)O)ccc2c1CCCC2 (stereo unspecified) | inactive
O=CC(O)C(O)C(O)COc1cc(CO)cc2c1C(=O)c1ccccc1C2=O (stereo unspecified) | inactive
Cn1ccnc1CCc1ccc(F)cc1F | inactive
C[C@@H](NS(=O)(=O)c1ccc(NC(=O)c2ccccc2)cc1)C(=O)O | inactive
Cc1ccc(NC(=S)C#N)c(C)c1 | inactive

====

test system: HT-29; assay: NCI tumour cell line growth inhibition, 48 h
The source made the active and inactive calls. Rule as the data show it: active = GI50 up to about 1.1 µM and inactive = higher.
Labels: t = active, f = inactive

compound | classLabel
c1cc(CSSCc2ccncc2)ccn1 | f
NCCCCNC1(c2cc3ccccc3s2)CCCCC1 | f
O=C(Nc1ccc(F)cc1)C(=O)C(C(=O)c1ccccc1F)C1OC(=O)c2ccccc21 (configuration not stated) | f
Cc1c(C(=O)CC(=O)C(=O)Nc2cc(Cl)ccc2Cl)[n+]([O-])c2ccccc2[n+]1[O-] | f
O=S(=O)(/C=C/c1ccc(Cl)cc1Cl)Cc1ccccc1CS(=O)(=O)/C=C/c1ccc(Cl)cc1Cl | f
CCOC(=O)C12CCCC1(O)N(NC(=O)c1cccc(Cl)c1)C(C)=C2C(=O)OC (configuration not stated) | f
CCOC(=O)CC[C@@H](NC(=O)c1ccc(NCc2ccc3nc(OC)c(OC)nc3c2)cc1)C(=O)OCC | f
Cc1cccc(C)c1NC(=O)C(=O)Cc1nc2ccccc2s1 | f
COc1ccc(CC2NCCc3cc(OC)c(OC)cc32)cc1Br (configuration not stated) | f
CC(=O)OCC1OC(n2c(=S)n(-c3ccccc3)c(=O)c3cc(Br)ccc32)C(OC(C)=O)C(OC(C)=O)C1OC(C)=O (configuration not stated) | f
O=C(NC(=O)c1c(F)cccc1F)Nc1cccc(Oc2ncc(Cl)cn2)c1 | f
C[C@]12CC[C@@H]3c4ccc(OP(=O)(O)O)cc4CC[C@H]3[C@@H]1CCC2=O | f
O=C(COc1ccccc1)NS(=O)(=O)c1ccccc1 | f
COC(=O)/C=C\n1nc(Br)c(=O)[nH]c1=O | f
Cc1cnc(-n2c(C)nc3cc(Cl)ccc3c2=O)s1 | f
Cc1nn(-c2ccccc2)c2nc(S)cnc12 | f
C[C@@H](CN1CC(=O)NC(=O)C1)N1CC(=O)NC(=O)C1 | f
Clc1cc2nc(C3CCCO3)[nH]c2cc1Cl (configuration not stated) | f
O=C(O)c1cc(CC2Cc3cc4c(cc3C2=O)CCC4)cc2c1CCC2 (configuration not stated) | f
COc1cc([C@@H]2c3cc4c(cc3[C@@H](NC(=O)c3cccc([N+](=O)[O-])c3)C3COC(=O)[C@@H]32)OCO4)cc(OC)c1O (some centres not stated) | f
CC(=O)NC1C(CO)O[C@@H]2OC(C)(C)O[C@H]12 (some centres not stated) | f
O=C1O[C@]2(c3ccccc3)C(c3ccccc3)=C[C@]2(C(=O)c2ccccc2)C1=O | f
CC(C)(C)c1cc(C(C)(C)C)c(SSc2c(C(C)(C)C)cc(C(C)(C)C)c(O)c2O)c(O)c1O | f
OCC(O)C(OC1OC(CO)C(O)C(O)C1O)c1nn(-c2ccc(Cl)cc2)c2nc3cc(Cl)c(Cl)cc3nc12 (configuration not stated) | f
NCCCCNCCCN1CC1 | f
O=C1CSc2cc([N+](=O)[O-])ccc2N1 | f
Cc1ccc(S(=O)(=O)NC(=O)NCC(=O)NCC(=O)O)cc1 | f
NC(CCOCCP(=O)(O)CCOCCC(N)C(=O)O)C(=O)O (configuration not stated) | f
CCCCCCCCCCCCCCCCOP(=O)(O)OCC(N)C(=O)O (configuration not stated) | f
CCCCCCN(C(=O)Oc1ccccc1)C(C#N)c1ccccc1 (configuration not stated) | f
CC1=NN(C(=O)CC(=O)NC(=O)/C=C\c2ccccc2)C(=O)C1/N=N/c1ccc([N+](=O)[O-])cc1 (configuration not stated) | f
CSc1nc2c(=O)n(-c3ccccc3)c(=S)n(-c3ccccc3)c2s1 | f
Oc1cc(-c2cccc(Cl)c2)nc2ncccc12 | t
Nc1nc(SCc2ccccc2)c2ncn(Cc3ccccc3)c2n1 | f
O=S(O)c1cc(Cl)cc(Cl)c1OCc1ccccc1 | f
CCOCc1cc(=O)c2c(O)cc3c(c2o1)CCC(C)(C)O3 | f
CN1CCc2nc(N)nc(-c3nc(N)nc4c3CN(C)CC4)c2C1 | f
O=C(c1ccccc1)c1ccc2[nH]c(-c3c(Cl)c(Cl)c(Cl)c(Cl)c3C(=O)N/N=C/c3ccc(Cl)cc3)nc2c1 | f
CCCCCc1cc2cc3c(c(O)c2c(=O)[nH]1)C1(CC3)C(=O)c2c(O)c3c(c(O)c2C1=O)C(=O)C(OC)=CC3=O (configuration not stated) | t
CCOC(=O)C(=O)C1C(=O)Nc2ccccc21 (configuration not stated) | f
O=C(Nc1ccc(N=C=S)cc1Cl)c1cc(Br)cc(Br)c1O | f
Cc1nc2ccccc2c(=O)n1NC(=S)Nc1cccc(Cl)c1 | f

FYI, the data here is from ChEMBL document CHEMBL1201862.
